Would you mind telling me the reported Potency of each entry?
- Test method notes: Quantitative high throughput screen to test activity of anti-malarial compounds in the Dd2 strain of Plasmodium Falciparum
- Condition parameters: P. falciparum Dd2 in RBCs, SYBR Green growth, 72 h
Calls of active or inactive are those of the source. The call rests on the fitted dose curve; in most records, active means well fitted inhibition curve with a large enough effect; inconclusive means small, poorly fitted or top-dose-only effect; inactive means flat fitted curve, though single readings scatter.

// solved cases for Potency follow
| Smiles data | Result type | Result |
| --- | --- | --- |
| C[C@@H]1CN([C@@H](C)CO)C(=O)c2cc(NC(=O)Nc3ccccc3)ccc2O[C@@H](C)CCCCO[C@H]1CN(C)Cc1ccc(C(F)(F)F)cc1 | Potency | 1590 nM (active) |
| C[C@@H]1CN([C@@H](C)CO)C(=O)c2cc(NC(=O)Nc3ccccc3)ccc2O[C@@H](C)C/C=C/CO[C@H]1CN(C)S(=O)(=O)c1ccc(F)cc1 | Potency | 565 nM (active) |

Moving on to another compound below.
(Q) Consider the compound shown here: COc1ccc(COC[C@H](C)N2C[C@@H](C)[C@H](CN(C)Cc3ccc(OC)cc3)OCCCC[C@H](C)Oc3ccc(NC(=O)Nc4ccccc4)cc3C2=O)cc1 What is its recorded Potency?
(A) 798 nM (active)

* * *

- Test method notes: Quantitative high throughput screen to test activity of anti-malarial compounds in the Dd2 strain of Plasmodium Falciparum
- Condition parameters: P. falciparum Dd2 in RBCs, SYBR Green growth, 72 h
The source made the active and inactive calls. The call rests on the fitted dose curve; in most records, active means well fitted inhibition curve with a large enough effect; inconclusive means small, poorly fitted or top-dose-only effect; inactive means flat fitted curve, though single readings scatter.
Result type: Potency

// solved cases for Potency follow
| Smiles data | Result type | Result |
| --- | --- | --- |
| C[C@@H]1CN(C)C(=O)c2cc(NC(=O)Nc3ccccc3)ccc2O[C@@H](C)CCCCO[C@@H]1CN(C)S(=O)(=O)c1ccc(F)cc1 | Potency | 3570 nM (active) |
| C[C@@H]1CN([C@@H](C)CN=[N+]=[N-])C(=O)c2cc(NC(=O)Nc3ccccc3)ccc2O[C@@H](C)CCCCO[C@H]1CN(C)S(=O)(=O)c1ccc(F)cc1 | Potency | 56.5 nM (active) |
| C[C@@H]1CN(CCO[Si](C)(C)C(C)(C)C)C(=O)c2cc(NC(=O)Nc3ccccc3)ccc2O[C@@H](C)CCCCO[C@H]1CN(C)S(=O)(=O)c1ccc(F)cc1 | Potency | 225 nM (active) |

Please give Potency, item by item, for the list that follows.
1. C[C@@H]1CN([C@@H](C)CO)C(=O)c2cc(NC(=O)Nc3ccccc3)ccc2O[C@@H](C)CCCCO[C@H]1CN(C)S(=O)(=O)c1cccc(F)c1
2. C[C@@H]1CN([C@@H](C)CO)C(=O)c2cc(NC(=O)Nc3ccccc3)ccc2O[C@@H](C)C/C=C\CO[C@H]1CN(C)S(=O)(=O)c1ccc(F)cc1
3. C[C@@H]1CCCCO[C@@H](CN(C)Cc2ccc(F)cc2)[C@H](C)CN([C@@H](C)CO)C(=O)c2cc(NC(=O)Nc3ccccc3)ccc2O1
4. C[C@@H]1CN([C@H](C)CO[Si](C)(C)C(C)(C)C)C(=O)c2cc(NC(=O)Nc3ccccc3)ccc2O[C@@H](C)CCCCO[C@H]1CN(C)S(=O)(=O)c1ccc(F)cc1

(A)
["50.4 nM (active)", "1260 nM (active)", "6340 nM (active)", "565 nM (active)"]

Please give Potency, item by item, for the list that follows.
1. C[C@@H]1CN([C@@H](C)CO)C(=O)c2cc(N)ccc2O[C@@H](C)CCCCO[C@H]1CN(C)S(=O)(=O)c1ccc(F)cc1
2. C[C@@H]1CN([C@@H](C)CO)C(=O)c2cc(Nc3nc4ccccc4o3)ccc2O[C@@H](C)CCCCO[C@H]1CN(C)S(=O)(=O)c1ccc(F)cc1
3. C[C@@H]1CN([C@@H](C)COC(=O)c2ccccc2)C(=O)c2cc(NC(=O)Nc3ccccc3)ccc2O[C@@H](C)CCCCO[C@H]1CN(C)S(=O)(=O)c1ccc(F)cc1
4. C[C@@H]1CN([C@@H](C)CO)C(=O)c2cc(NC(=O)Nc3ccccc3)ccc2O[C@@H](C)CCCCO[C@H]1CN(C)C(=O)OC(C)(C)C
5. COc1ccc(COCCN2C[C@@H](C)[C@H](CN(C)S(=O)(=O)c3ccc(F)cc3)OCCCC[C@H](C)Oc3ccc(NC(=O)Nc4ccccc4)cc3C2=O)cc1

(A)
1: 711 nM (active); 2: 2000 nM (active); 3: 179 nM (active); 4: 2250 nM (active); 5: 252 nM (active)
